Target entity: HLA-B*15:09
Assay explanation: IEDB peptide-MHC binding, purified MHC/direct/fluorescence; filed as Kd, often an IC50 or EC50 that approximates it; bounds were set here for any values at or beyond the usual limits of such assays
Measurement context: source organism: Burkholderia mallei ATCC 23344
Value type: Kd

Briefly, Kd measured for EARGKEKLL : ≥ 20 µM

----------
What IC50 was measured for each of the following?
Target entity: HLA-A*03:01
Assay explanation: IEDB peptide-MHC binding, purified MHC/competitive/fluorescence; bounds were set here for any values at or beyond the usual limits of such assays
Measurement context: source organism: Zaire ebolavirus
Answers are plain numbers, in µM.

These solved cases illustrate the format of a correct answer.
PVYRDHSEK 7.62
RSTKGGQQK 5.63
ETKKNLTRK 49.6

Kindly consider the entry below.
Briefly, IC50 measured for RLMRTNFLI : 3.42

----------
Target entity: HLA-B*27:05
Assay explanation: IEDB peptide-MHC binding, purified MHC/direct/fluorescence; filed as Kd, often an IC50 or EC50 that approximates it; bounds were set here for any values at or beyond the usual limits of such assays
Measurement context: source organism: Burkholderia mallei
Value type: Kd

Briefly, Kd measured for EARGKEKLL : ≥ 20 µM

----------
Target entity: HLA-B*15:01
Assay explanation: IEDB peptide-MHC binding, purified MHC/direct/fluorescence; filed as Kd, often an IC50 or EC50 that approximates it; bounds were set here for any values at or beyond the usual limits of such assays
Measurement context: source organism: West Nile virus
pKd: −log10 of the molar value.
What pKd was measured for each of the following?

These solved cases illustrate the format of a correct answer.
TEGEGRVIL ≤ 4.70
KCRVKMEKL ≤ 4.70

Kindly consider the entry below.
Tested system HLA-B*15:01; pKd recorded for GHGTVVLEL was ≤ 4.70

----------
Target entity: HLA-A*02:06
Assay explanation: IEDB peptide-MHC binding, purified MHC/competitive/radioactivity; filed as Kd, often an IC50 or EC50 that approximates it; bounds were set here for any values at or beyond the usual limits of such assays
Measurement context: source organism: Dengue virus 1 Brazil/97-11/1997
Value type: Kd
# include the unit after the value

ILLKATLLAV 18.1 nM

Briefly, Kd measured for KQLGQIMLL : 5.76 nM

----------
What Kd was measured for each of the following?
Target entity: HLA-B*57:01
Assay explanation: IEDB peptide-MHC binding, purified MHC/direct/fluorescence; filed as Kd, often an IC50 or EC50 that approximates it; bounds were set here for any values at or beyond the usual limits of such assays
Measurement context: source organism: Brucella melitensis
One number for each entry, in nM.

RAYSVPETF 41.8

Kindly consider the entry below.
Briefly, Kd measured for KAGVRGWFL : 71.5

----------
Target entity: HLA-B*51:01
Assay explanation: IEDB peptide-MHC binding, purified MHC/competitive/fluorescence; filed as Kd, often an IC50 or EC50 that approximates it; bounds were set here for any values at or beyond the usual limits of such assays
Measurement context: source organism: Salmonella enterica subsp. enterica serovar Typhi
pKd: −log10 of the molar value.
Value type: pKd

Briefly, pKd measured for KTVRYWHRF : ≤ 4.70

----------
Target entity: HLA-A*02:02
Assay explanation: IEDB peptide-MHC binding, purified MHC/competitive/radioactivity; filed as Kd, often an IC50 or EC50 that approximates it; bounds were set here for any values at or beyond the usual limits of such assays
Measurement context: source organism: Homo sapiens
Value type: pKd
Numbers only, as −log10 of the molar value.

Tested system HLA-A*02:02; pKd recorded for PLESDAVECL was 5.37

----------
Target entity: HLA-A*11:01
Assay explanation: IEDB peptide-MHC binding, purified MHC/competitive/fluorescence; filed as Kd, often an IC50 or EC50 that approximates it; bounds were set here for any values at or beyond the usual limits of such assays
Measurement context: source organism: Pleistophora sp. LS
pKd: −log10 of the molar value.
Value type: pKd

Briefly, pKd measured for VELQIGWTV : ≤ 4.70

----------
Target entity: HLA-A*32:01
Assay explanation: IEDB peptide-MHC binding, purified MHC/competitive/radioactivity; filed as Kd, often an IC50 or EC50 that approximates it; bounds were set here for any values at or beyond the usual limits of such assays
Measurement context: source organism: Vaccinia virus WR
Value type: Kd (nM)
Answers are plain numbers, in nM.

These solved cases illustrate the format of a correct answer.
LTFDYVVTF 17.2
ILMIFISSF 86.7
STIANSNII 14.3

// batch mode: one Kd value per listed entry
1. IIIFFIVLI
2. KINNFANEF

Marked response:
[13.7, 2.08]

// batch mode: one Kd value per listed entry
1. IINKFFEVI
2. RSIMGSNNI

Marked response:
11.1
141

----------
Target entity: HLA-A*01:01
Assay explanation: IEDB peptide-MHC binding, purified MHC/competitive/radioactivity; filed as Kd, often an IC50 or EC50 that approximates it; bounds were set here for any values at or beyond the usual limits of such assays
Measurement context: source organism: SARS coronavirus Tor2
pKd: −log10 of the molar value.
Value type: pKd

RYNLPTMCDI ≤ 4.15

// batch mode: one pKd value per listed entry
1. LWLLWPVTL
2. KSAQCFKMFY

Marked response:
1: ≤ 4.11; 2: ≤ 4.05

----------
Target entity: HLA-B*40:02
Assay explanation: IEDB peptide-MHC binding, purified MHC/competitive/radioactivity; filed as Kd, often an IC50 or EC50 that approximates it; bounds were set here for any values at or beyond the usual limits of such assays
Measurement context: source organism: SARS coronavirus Tor2
Value type: Kd

These solved cases illustrate the format of a correct answer.
MEVQSLAMST ≥ 20.1 µM
GDYFVLTSHT ≥ 37.7 µM
NDFVSDADST ≥ 70.8 µM
MDGIQYGRSG ≥ 70.8 µM

Kindly consider the entry below.
Briefly, Kd measured for NEKVAGFAKF : ≥ 70.8 µM

----------
Target entity: HLA-A*02:06
Assay explanation: IEDB peptide-MHC binding, purified MHC/competitive/radioactivity; filed as Kd, often an IC50 or EC50 that approximates it; bounds were set here for any values at or beyond the usual limits of such assays
Measurement context: source organism: Vaccinia virus WR
What Kd was measured for each of the following?
Numbers only, in nM.

// batch mode: one Kd value per listed entry
1. IVNTTYDFLA
2. STIANSNII
3. SLGKSPLPSL

Marked response:
1: 956; 2: 1240; 3: 1430

----------
Target entity: HLA-A*02:03
Assay explanation: IEDB peptide-MHC binding, purified MHC/competitive/radioactivity; filed as Kd, often an IC50 or EC50 that approximates it; bounds were set here for any values at or beyond the usual limits of such assays
Measurement context: source organism: Vaccinia virus WR
pKd: −log10 of the molar value.
What pKd was measured for each of the following?

These solved cases illustrate the format of a correct answer.
DIKYDNKLL ≤ 4.30
QTLISLNSM ≤ 4.41
PTEMVDVSM ≤ 4.38

// batch mode: one pKd value per listed entry
1. PLIISTDQDT
2. FASADNHPKM
3. DLDKVYEIL

Marked response:
1. ≤ 4.45
2. ≤ 4.32
3. ≤ 4.58

----------
What Kd was measured for each of the following?
Target entity: HLA-A*11:01
Assay explanation: IEDB peptide-MHC binding, purified MHC/competitive/radioactivity; filed as Kd, often an IC50 or EC50 that approximates it; bounds were set here for any values at or beyond the usual limits of such assays
Measurement context: source organism: SARS coronavirus Tor2
Answers are plain numbers, in nM.

STSAFIDTIK 15.6
QLEQPYVFIK 2990
ATSTGNYNYK 1.38
TMLFTMLRK 20
HLYLQYIRK 14.8

// batch mode: one Kd value per listed entry
1. SADASTFLK
2. KSAQCFKMFY
3. AFQHQNSKK

Marked response:
[2.97, 2250, 3000]

----------
Target entity: HLA-A*33:01
Assay explanation: IEDB peptide-MHC binding, purified MHC/competitive/radioactivity; filed as Kd, often an IC50 or EC50 that approximates it; bounds were set here for any values at or beyond the usual limits of such assays
Measurement context: source organism: Vaccinia virus WR
Value type: Kd (µM)
Give bare numbers, in µM.

LVFNSISAR 1.04
MSHLKVALY 18.1
IFPANINDK 12.5

// batch mode: one Kd value per listed entry
1. HIKTIAVSVY
2. DTQMRTPLHK
3. YQSFLFWFLK
4. HTSVSAKQLR
5. ISRDELWAR
6. ILMIFISSFL
7. SISSVLTILY

Marked response:
1: 13.8; 2: 12.5; 3: 3.99; 4: 1.14; 5: 0.00169; 6: 0.966; 7: 2.24

// batch mode: one Kd value per listed entry
1. FIDVHIPKFK
2. CFKEASFSKR
3. IASKINNNR

Marked response:
1: 13.1; 2: 0.0614; 3: 0.0766
